System: BT-549
PROTOCOL: NCI DTP human tumor cell line screen (SRB)
Assay type: cell-based
ASSAY_SETUP: Breast Cancer, 10 μM, 48 h
Growth Percent strictly less than 20% = Yes. Otherwise No.

Solved entries:
COMPOUND: CC1CCC2C(C)C(OCc3ccc(C(=O)NN=Cc4ccccc4)cc3)OC3OC4(C)CCC1C32OO4 (stereo not drawn) [ART-Phe-Bz]
GROUP: Yes

COMPOUND: CC1CCC2C(C)C(OCc3ccc(C(=O)NN=Cc4ccccc4O)cc3)OC3OC4(C)CCC1C32OO4 (stereo not drawn) [ART-Phe-Sal]
GROUP: No

COMPOUND: Cc1ncc(CO)c(C=NNC(=O)c2ccc(COC3OC4OC5(C)CCC6C(C)CCC(C3C)C46OO5)cc2)c1O (stereo not drawn) [ART-Phe-Pyridoxal]
GROUP: Yes

COMPOUND: CC1CCC2C(C)C(OCc3ccc(C(=O)NN=Cc4ccccc4O)nc3)OC3OC4(C)CCC1C32OO4 (stereo not drawn) [ART-Pyr-Sal]
GROUP: Yes

COMPOUND: CC1CCC2C(C)C(OCc3ccc(C(=O)NN=Cc4ccccc4O)o3)OC3OC4(C)CCC1C32OO4 (stereo not drawn) [ART-Furan-Sal]
GROUP: No

I wonder whether CC1CCC2C(C)C(OCCn3cc(C(=O)NN=Cc4ccccc4O)nn3)OC3OC4(C)CCC1C32OO4 (stereo not drawn) [ART-Triazole-Sal] has Growth Percent below 20%. Can you tell? No
